Target: UniProt Q04759
Sequence (Q04759 whole entry): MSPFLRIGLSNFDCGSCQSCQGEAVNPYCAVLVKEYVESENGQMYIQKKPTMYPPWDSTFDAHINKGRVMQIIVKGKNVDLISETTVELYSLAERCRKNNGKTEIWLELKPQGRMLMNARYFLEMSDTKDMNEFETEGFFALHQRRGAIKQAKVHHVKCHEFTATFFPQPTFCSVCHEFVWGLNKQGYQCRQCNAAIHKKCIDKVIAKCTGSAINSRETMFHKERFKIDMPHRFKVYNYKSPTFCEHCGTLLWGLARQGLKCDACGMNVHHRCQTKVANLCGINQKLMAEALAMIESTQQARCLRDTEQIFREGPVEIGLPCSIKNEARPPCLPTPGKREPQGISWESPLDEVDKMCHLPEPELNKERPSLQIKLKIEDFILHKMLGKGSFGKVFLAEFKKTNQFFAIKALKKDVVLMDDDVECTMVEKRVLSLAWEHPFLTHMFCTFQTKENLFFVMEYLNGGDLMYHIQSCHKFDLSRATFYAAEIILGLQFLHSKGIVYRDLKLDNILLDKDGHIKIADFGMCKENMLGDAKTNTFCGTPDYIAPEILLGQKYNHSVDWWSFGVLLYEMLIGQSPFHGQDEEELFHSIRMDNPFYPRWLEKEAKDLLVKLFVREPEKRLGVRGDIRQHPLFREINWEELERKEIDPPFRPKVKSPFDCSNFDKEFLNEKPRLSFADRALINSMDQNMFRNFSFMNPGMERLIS
pIC50: −log10 of the molar value.
VALUE_TYPE: pIC50

For the compound FC(F)(F)CNc1nc(Nc2ccc(N3CCOCC3)c(Cl)c2)nc2ccoc12 , the measured pIC50 on UniProt Q04759 was < 5.00

* * *

Molecular target: AMP-activated protein kinase, AMPK
Assay: Inhibition of AMPK (unknown origin) after 60 mins by TR-FRET assay
I'd appreciate it if you could supply IC50 values for the items below.

For the molecule CC1(C)OCC(=O)Nc2cc(Nc3nc(NCC(F)(F)F)c4occc4n3)ccc21 , the measured IC50 on AMP-activated protein kinase, AMPK was > 10 µM

For the molecule FC(F)(F)CNc1nc(Nc2ccc(N3CCOCC3)c(Cl)c2)nc2ccoc12 , the measured IC50 on AMP-activated protein kinase, AMPK was > 10 µM

For the molecule Cc1n[nH]c2cc(Nc3nc(NC4CC4)c4occc4n3)ccc12 , the measured IC50 on AMP-activated protein kinase, AMPK was > 10 µM

For the molecule FC(F)(F)CNc1nc(Nc2ccc3cn[nH]c3c2)nc2ccoc12 , the measured IC50 on AMP-activated protein kinase, AMPK was > 10 µM

* * *

Test: Unbound clearance in human microsomes
Assay type: ADME, Microsome
VALUE_TYPE: CL free (mL/min/kg)
Please give a number only; it is taken to be in mL/min/kg.

In plain terms, COC(=O)N[C@@H]1CC(C)(C)c2ccc(Nc3nc(NC4CC4)c4occc4n3)cc2NC1=O has a documented CL free of 123

In plain terms, CCNc1nc(Nc2ccc3c(c2)NC(=O)COC3(C)C)nc2ccoc12 has a documented CL free of 91.7

In plain terms, CCCNc1nc(Nc2ccc3c(c2)NC(=O)COC3(C)C)nc2ccoc12 has a documented CL free of 307

In plain terms, CC1(C)OCC(=O)Nc2cc(Nc3nc(NC4CC4)c4occc4n3)ccc21 has a documented CL free of 120

* * *

VALUE_TYPE: IC50

For the molecule CC1(C)OCC(=O)Nc2cc(Nc3nc(NCC(F)(F)F)c4occc4n3)ccc21 , the measured IC50 on Serine/threonine-protein kinase B-raf (Homo sapiens, UniProt P15056) was > 10 µM

* * *

pIC50: −log10 of the molar value.
VALUE_TYPE: pIC50

For the compound FC(F)(F)CNc1nc(Nc2ccc(N3CCOCC3)c(Cl)c2)nc2ccoc12 , the measured pIC50 on Dual specificity tyrosine-phosphorylation-regulated kinase 1A (Homo sapiens) was < 5.00

For the compound FC(F)(F)CNc1nc(Nc2ccc3cn[nH]c3c2)nc2ccoc12 , the measured pIC50 on Dual specificity tyrosine-phosphorylation-regulated kinase 1A (Homo sapiens) was 5.31

For the compound CC1(C)OCC(=O)Nc2cc(Nc3nc(NCC(F)(F)F)c4occc4n3)ccc21 , the measured pIC50 on Dual specificity tyrosine-phosphorylation-regulated kinase 1A (Homo sapiens) was < 5.00

For the compound Cc1n[nH]c2cc(Nc3nc(NC4CC4)c4occc4n3)ccc12 , the measured pIC50 on Dual specificity tyrosine-phosphorylation-regulated kinase 1A (Homo sapiens) was < 5.00

* * *

VALUE_TYPE: IC50

For the compound CC1(C)OCC(=O)Nc2cc(Nc3nc(NCC(F)(F)F)c4occc4n3)ccc21 , the measured IC50 on Fibroblast growth factor receptor 1 (Homo sapiens) was > 10 µM
